Every entry's value here was drawn from patent US20260242478A1.

Target: T1, anti-CD28 Fab (SEQ ID NOs: 696, 697)
T1 construct: In the phage ELISA the Fab was biotinylated and captured on neutravidin coated plates
T1 sequence (VH, as listed by the source, chain 1 of 2): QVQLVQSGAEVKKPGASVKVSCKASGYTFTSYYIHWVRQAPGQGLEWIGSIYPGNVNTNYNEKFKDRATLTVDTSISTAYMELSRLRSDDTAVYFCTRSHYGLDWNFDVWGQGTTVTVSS
T1 sequence (VL, as listed by the source, chain 2 of 2): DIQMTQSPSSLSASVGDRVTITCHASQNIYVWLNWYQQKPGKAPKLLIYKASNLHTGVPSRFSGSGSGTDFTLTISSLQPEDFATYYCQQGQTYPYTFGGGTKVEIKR
Assay: phage ELISA; biotinylated anti-CD28 Fab on neutravidin plate, clonal phage supernatant, anti-M13 HRP detection;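 note: crude supernatants of single phage clones picked after panning were screened for binding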
assay_metric: Phage binding ELISA, Anti-CD28 Fab (SEQ ID NOs: 696, 697) signal
Give bare numbers.

// below: answered binders
| binder | reported |
| --- | --- |
| YCEGHAPEYIWKCL [Phage-484] | 1.63 |
| YCMGHSHEHIWKCL (also called Peptide-97) [Phage-476] | 0.87 |
| YCAGHMPQYEVKCL (also called Peptide-95) [Phage-474] | 0.22 |

Attention now shifts to the item below.
Input: Can you look up the measured Phage binding ELISA, Anti-CD28 Fab (SEQ ID NOs: 696, 697) signal of YCEGHSQENIWKCL [Phage-485] for me?
Output: 1.41
